# test protocol: self-splicing fitness, log relative to wild type (ln ratio); higher = more splicing; Tetrahymena group I intron in knt gene, E. coli kanamycin selection, DiMSum; sequences stand for … in CUCUCU…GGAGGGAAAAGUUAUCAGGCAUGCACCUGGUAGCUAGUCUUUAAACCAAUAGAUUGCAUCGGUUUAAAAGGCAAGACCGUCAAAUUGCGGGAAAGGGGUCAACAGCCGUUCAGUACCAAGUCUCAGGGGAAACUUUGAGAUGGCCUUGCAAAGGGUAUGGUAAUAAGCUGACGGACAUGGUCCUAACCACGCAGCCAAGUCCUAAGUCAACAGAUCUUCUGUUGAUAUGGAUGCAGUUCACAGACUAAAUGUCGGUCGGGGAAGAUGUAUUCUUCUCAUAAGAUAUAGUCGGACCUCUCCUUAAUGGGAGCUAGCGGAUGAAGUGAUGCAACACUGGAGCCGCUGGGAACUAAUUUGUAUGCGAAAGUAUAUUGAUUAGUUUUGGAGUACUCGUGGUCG;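 further: selection with 25 µg/mL kanamycin versus none on LB agar overnight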
# measurement setup: 30 °C
recorded endpoint: self-splicing fitness (ln)
I'd appreciate a reply containing only the number, no unit.

Look over these answered cases.
GUGUAGCAAUAUUACGAGUG | -2.83
AGAAAGCAAUAUUACGUGAA | -2.39
UGGGAGCAAUAUUACGUACA | -1.26
ACCUAGCAAUAUUACGCUGU | -1.54
CUAGAGCAAUAUUACGGACA | -2.86
AUACAGCAAUAUUACGUCGA | -1.77

// query Entry CUCAAGCAAUAUUACGGUGC : reported self-splicing fitness (ln) = ?
// result -4.1

// query Entry GCCGAGCAAUAUUACGACCU : reported self-splicing fitness (ln) = ?
// result -2.33

====

# test protocol: self-splicing fitness, log relative to wild type (ln ratio); higher = more splicing; Tetrahymena group I intron in knt gene, E. coli kanamycin selection, DiMSum; sequences stand for … in CUCUCU…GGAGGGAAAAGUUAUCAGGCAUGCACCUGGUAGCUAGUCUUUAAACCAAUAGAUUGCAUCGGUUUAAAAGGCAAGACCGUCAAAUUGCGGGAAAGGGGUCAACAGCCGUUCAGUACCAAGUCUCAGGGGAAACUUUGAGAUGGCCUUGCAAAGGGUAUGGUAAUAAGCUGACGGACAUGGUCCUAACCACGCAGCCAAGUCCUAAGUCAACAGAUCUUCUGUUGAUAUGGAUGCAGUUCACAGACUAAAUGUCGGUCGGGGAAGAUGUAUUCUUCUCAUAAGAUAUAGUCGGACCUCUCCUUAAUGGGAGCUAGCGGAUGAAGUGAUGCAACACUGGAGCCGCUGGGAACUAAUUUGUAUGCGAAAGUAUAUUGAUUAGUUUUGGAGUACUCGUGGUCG
# measurement setup: 37 °C
recorded endpoint: self-splicing fitness (ln)
I'd appreciate a reply containing only the number, no unit.

Look over these answered cases.
UUUCAGCAAUAUUACGGGUU | -2.13
CUAUAGCAAUAUUACGUCGU | -2.24
ACCGAGCAAUAUUACGAUAG | -2.42
AGUGAGCAAUAUUACGCUAC | -2.3

// query Entry GUACAGCAAUAUUACGGUAG : reported self-splicing fitness (ln) = ?
// result -0.303

// query Entry UCGAAGCAAUAUUACGGAAG : reported self-splicing fitness (ln) = ?
// result -2.11

// query Entry CAAGAGCAAUAUUACGUAGC : reported self-splicing fitness (ln) = ?
// result -1.86

// query Entry CACGAGCAAUAUUACGCGGA : reported self-splicing fitness (ln) = ?
// result -3.37

// query Entry AGAGAGCAAUAUUACGCAGG : reported self-splicing fitness (ln) = ?
// result -3.21

The reported measurements were obtained from the supplement of paper PMC7877785.
